# Assay Comment: NCI Yeast Anticancer Drug Screen. Data for the mec2-1 strain (AID 157)
# Measurement Context: S. cerevisiae mec2-1 strain, at 50.0 µM, hits give high values
This is part of a sample that, as a whole, favours compounds with a hit. Of some 79,000 tested, about 15% had one in any assay.
Please use y whenever growth inhibition is not below 20%, and n whenever it is.

# Compound, Class Label
measured = [
    ("COC(OC)C1(c2ccccc2)NC(=O)N(Cc2ccccc2)C1=O (stereo unspecified)", "n"),
    ("O=C(COc1ccc(Cl)c(Cl)c1)NCc1ccc([N+](=O)[O-])cc1", "y"),
    ("CSc1nc(N)c(N=Nc2ccc(S(=O)(=O)Nc3cc(C)nc(C)n3)cc2)c(=O)[nH]1", "n"),
    ("CC[C@@]1(O)C[C@H](OC2CC(N(C)C)C(OC3CC(O)C(OC4CC(O)C(O)C(C)O4)C(C)O3)C(C)O2)c2c(cc3c(c2O)C(=O)c2c(O)ccc(O)c2C3=O)[C@H]1C(=O)OC (stereo partly specified)", "n"),
    ("Cc1cccc(-n2c(N)c(-c3nc4ccccc4[nH]3)sc2=S)c1", "n"),
]
